Assay System: Sulfhydryl oxidase 1 (Homo sapiens) (UniProt O00391)
Sequence (O00391 whole entry, looked up): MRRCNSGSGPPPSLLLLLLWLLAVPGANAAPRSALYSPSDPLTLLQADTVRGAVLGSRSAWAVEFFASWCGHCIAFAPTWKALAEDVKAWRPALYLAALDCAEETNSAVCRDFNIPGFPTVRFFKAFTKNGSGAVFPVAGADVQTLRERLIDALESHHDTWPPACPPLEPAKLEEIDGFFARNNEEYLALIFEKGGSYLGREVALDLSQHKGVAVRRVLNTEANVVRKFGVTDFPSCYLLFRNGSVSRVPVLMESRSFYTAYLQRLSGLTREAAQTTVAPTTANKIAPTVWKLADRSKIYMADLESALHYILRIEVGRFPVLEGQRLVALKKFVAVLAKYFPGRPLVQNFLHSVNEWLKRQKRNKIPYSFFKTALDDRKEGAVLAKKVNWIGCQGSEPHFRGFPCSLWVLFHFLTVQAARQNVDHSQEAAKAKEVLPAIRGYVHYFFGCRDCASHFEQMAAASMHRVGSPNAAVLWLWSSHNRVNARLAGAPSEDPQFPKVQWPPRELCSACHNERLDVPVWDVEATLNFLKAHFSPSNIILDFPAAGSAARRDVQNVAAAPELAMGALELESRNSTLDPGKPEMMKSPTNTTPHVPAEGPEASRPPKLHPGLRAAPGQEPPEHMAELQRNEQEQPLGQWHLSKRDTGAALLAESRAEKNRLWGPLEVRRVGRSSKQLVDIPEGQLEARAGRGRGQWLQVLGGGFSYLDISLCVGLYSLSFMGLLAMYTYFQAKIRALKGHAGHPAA
Test Name: QSOX1 enzyme inhibitors, primary screen, biochemical, HyperBlu H2O2 luminescence, HTS (AID 1347420); further: values above 100% were filed as inconclusive
Details: recombinant QSOX1, HyperBlu H2O2 luminescence, at 12.5 µM, active compounds read high; active = any value above zero unless noted
About 980 (75%) of roughly 1,300 compounds were called active. Roughly 4% stayed inconclusive and do not appear here. Some of the results follow.
// allowed return values: TRUE for active, FALSE for inactive

Take a look at these entries with their results.
Oc1ccc2c3c1O[C@H]1c4[nH]c5c(c4C[C@@]4(O)[C@@H](C2)N(CC2CC2)CC[C@]314)C[C@@]1(O)[C@H]2Cc3ccc(O)c4c3[C@@]1(CCN2CC1CC1)[C@H]5O4 :: TRUE
NC(N)=Nc1ccc2[nH]c3c(c2c1)C[C@@]1(O)[C@H]2Cc4ccc(O)c5c4[C@@]1(CCN2CC1CC1)[C@H]3O5 :: TRUE
CC1(C(=O)O)C2CCC(O2)C1(C)C(=O)O (stereo not given) :: FALSE
Oc1ccc2c3c1O[C@H]1c4[nH]c5ccccc5c4C[C@@]4(O)C(C2)N(CC2CC2)CCC314 (stereo not given in full) :: TRUE

INPUT: Status in this test for NC(C(=O)O)c1cc(=O)[nH]o1 (stereo not given) ?
OUTPUT: TRUE
